- System: DU-145 prostate
- assay.details: NCI-60 one-dose screen, 48 h (100 = growth as untreated, 0 = no growth, -100 = all killed)
- assay.conditions: 10 µM unless noted
The panel holds about 83,000 compounds, 20% with a hit somewhere; the sample as a whole holds those more often.
Threshold 20%: growth strictly smaller gives yes (1), otherwise no (0).

{"compound": "O=C(c1ccc(F)c(F)c1Nc1ccc(I)cc1F)N1CC(O)([C@@H]2CCCCN2)C1", "class.label": "no (0)"}
{"compound": "COc1cc2nc(Nc3cccc(Cl)c3)nc(N)c2cc1OC", "class.label": "no (0)"}
{"compound": "COC(=O)[C@]12CC[C@@H](C)[C@H](C)[C@@H]1C1=CC[C@@H]3[C@@]4(C)C(C=O)=C[C@@](C)(COS(C)(=O)=O)C4=CC[C@@]3(C)[C@]1(C)CC2", "class.label": "yes (1)"}
{"compound": "CC1(C)NC(=O)c2[nH]c3c(Cl)c(Cl)ccc3c2C1C#N (stereo not drawn)", "class.label": "no (0)"}
{"compound": "CNC(=O)c1nn(C)c2c1C(C)(C)Cc1cnc(Nc3ccc(N4CCN(C)CC4)cc3)nc1-2", "class.label": "yes (1)"}
{"compound": "CC(C)(O)CC(=O)NCCn1ccc2ncnc(Nc3ccc(Oc4cccc(C(F)(F)F)c4)c(Cl)c3)c21", "class.label": "no (0)"}
{"compound": "CCCCCC(=O)OCc1ccc(Cl)c(Cl)c1", "class.label": "no (0)"}
{"compound": "N[C@@H]1CCCN(c2c(/C=C3\\SC(=O)NC3=O)cccc2-c2ccccc2)C1", "class.label": "no (0)"}
{"compound": "CCc1nc2cc(/C=C/C(=O)NO)ccc2c(=O)n1CCc1ccc(OC)cc1", "class.label": "yes (1)"}
{"compound": "CCN1CCN(Cc2ccc(NC(=O)Nc3nc(-c4cc(OC)c(OC)c(OC)c4)cs3)cc2C(F)(F)F)CC1", "class.label": "no (0)"}
{"compound": "Cc1cc(N2CCCC2)nc(N(CCCNc2ccnc3cc(Cl)ccc23)Cc2ccc3c(c2)OCO3)n1", "class.label": "no (0)"}
{"compound": "CCCCCCCC(=O)SCC/C=C/[C@@H]1CC(=O)NCc2cccc(n2)C2=N[C@@](C)(CS2)C(=O)N[C@@H](C(C)C)C(=O)O1", "class.label": "yes (1)"}
{"compound": "O=C(Cn1ccc2ccccc21)Nc1ccc(-c2nc3ccccc3s2)cc1", "class.label": "no (0)"}
{"compound": "Cc1c(NC(=O)OC[C@@H]2COCCN2)cn2ncnc(Nc3ccc4c(cnn4Cc4cccc(F)c4)c3)c12", "class.label": "yes (1)"}
{"compound": "CCn1c(-c2nonc2N)nc2c(C#CC(C)(C)O)ncc(OC[C@H]3CCCNC3)c21", "class.label": "no (0)"}
{"compound": "COc1ccc(F)c(F)c1C(=O)c1cnc(NC2CCN(S(C)(=O)=O)CC2)nc1N", "class.label": "yes (1)"}
{"compound": "C[C@@H](Oc1cc(-n2cnc3ccc(CN4CCN(C)CC4)cc32)sc1C(N)=O)c1ccccc1C(F)(F)F", "class.label": "yes (1)"}
{"compound": "COc1ccc2c(c1OC)C(=O)O[C@@H]2[C@H]1c2c(c(C#CC#Cc3ccc(F)c(F)c3)c3c(c2OC)OCO3)CCN1C", "class.label": "no (0)"}
